Reported relative IC50 values for the following molecules.
tested on: BT-474; test: relative IC50 (midpoint of fitted logistic curve, plateau may be below 50% inhibition; CellTiter-Glo viability); higher = less potent; details: 4-OH-tamoxifen in medium 1 µM; 72 h

Cn1nnc2c(C(N)=O)ncn2c1=O [Temozolomide] : > 10 µM
O=C(Nc1c[nH]nc1-c1nc2ccc(CN3CCOCC3)cc2[nH]1)NC1CC1 : > 1 µM
C[C@]1(c2nc3c(C(N)=O)cccc3[nH]2)CCCN1 : > 10 µM

In the following, a different molecule is considered.
Asked: Give its relative IC50 value. Item: "CC1=C2C[C@H]3[C@@H](CC=C4C[C@@H](O)CC[C@@]43C)[C@@H]2CC[C@]12O[C@@H]1C[C@H](C)CN[C@H]1[C@H]2C"
Given back: > 10 µM
